Tested on: Plasmodium falciparum
method-description: Antiplasmodial activity against chloroquine resistant Plasmodium falciparum FcB1/Columbia infected in human erythrocytes preincubated for 24 hrs followed by [3H]-hypoxanthine addition and measured after 24 hrs by liquid scintillation analysis
Assay type: functional, organism-based
quantity-kind: pIC50
One number for each entry, as −log10 of the molar value.

| compound | result-value |
| --- | --- |
| COC12OOC3(C=C1C(=O)C(C)(C)C(=O)C2(C)C)CCN(C(=O)CCC(=O)N(CCCCNC(=O)CC[C@H]1O[C@@H]2O[C@@]4(C)CC[C@H]5[C@H](C)CC[C@@H]([C@H]1C)[C@@]25OO4)CCCCNC(=O)CC[C@H]1O[C@@H]2O[C@@]4(C)CC[C@H]5[C@H](C)CC[C@@H]([C@H]1C)[C@@]25OO4)CC3 (some centres undefined) | 7.97 |
| C[C@H]1[C@@H](CCC(=O)NCCCCN(CCCCNC(=O)CC[C@H]2O[C@@H]3O[C@@]4(C)CC[C@H]5[C@H](C)CC[C@@H]([C@H]2C)[C@@]35OO4)C(=O)CCC(=O)NCCNc2ccnc3cc(Cl)ccc23)O[C@@H]2O[C@@]3(C)CC[C@H]4[C@H](C)CC[C@@H]1[C@@]24OO3 | 7.28 |
| C[C@@H]1CC[C@H]2[C@@H](C)C(=O)O[C@@H]3O[C@@]4(C)CC[C@@H]1[C@]32OO4 [ARTEMISININ] | 7.26 |
| COC12OOC3(C=C1C(=O)C(C)(C)C(=O)C2(C)C)CCN(C(=O)CC[C@H]1O[C@@H]2O[C@@]4(C)CC[C@H]5[C@H](C)CC[C@@H]([C@H]1C)[C@@]25OO4)CC3 (some centres undefined) | 8.59 |
| COC12OOC3(C=C1C(=O)C(C)(C)C(=O)C2(C)C)CCN(C(=O)CCC(=O)NCC[C@H]1O[C@@H]2O[C@@]4(C)CC[C@H]5[C@H](C)CC[C@@H]([C@H]1C)[C@@]25OO4)CC3 (some centres undefined) | 6.91 |

The record that follows has no pIC50 shown yet.
Q: Bench note: what pIC50 did COC12OOC3(C=C1C(=O)C(C)(C)C(=O)C2(C)C)CCN(C(=O)CCC(=O)N(CCCCNC(=O)CC[C@H]1O[C@@H]2O[C@@]4(C)CC[C@H]5[C@H](C)CC[C@@H]([C@H]1C)[C@@]25OO4)CCCNC(=O)CC[C@H]1O[C@@H]2O[C@@]4(C)CC[C@H]5[C@H](C)CC[C@@H]([C@H]1C)[C@@]25OO4)CC3 (some centres undefined) show?
Result: 8.08
